Assay: Oral bioavailability in cynomolgus monkey.
Type: ADME, organism-based, Macaca fascicularis
Conditions: in vivo, read-out: Bioavailabiility

- MOLECULE: "O=C(c1ccc(OCCN2CCCCC2)cc1)c1c(-c2ccc(O)cc2)sc2cc(O)ccc12 [RALOXIFENE]"
  bioavailability, %: 5

* * *

# bioavailability values compiled below
Experiment: Oral bioavailability in rat
Format: ADME, organism-based
Details: in vivo

- COMPOUND: "Oc1ccc2c(c1)CC[C@H](c1ccccc1)[C@H]2c1ccc(OCCN2CCCC2)cc1"
  UNIT TEXT: "%"
  bioavailability: 16
- COMPOUND: "Oc1ccc2c(c1)OC(c1ccc(OCCN3CCCC3)cc1)C(c1ccccc1)=C2 (centres undefined)"
  UNIT TEXT: "%"
  bioavailability: 27
- COMPOUND: "Oc1ccc2c(c1)CC[C@@H](c1ccccc1)[C@H]2c1ccc(OCCN2CCCC2)cc1"
  UNIT TEXT: "%"
  bioavailability: 29
- COMPOUND: "Oc1ccc2c(c1)CC[C@H](c1ccccc1)[C@@H]2c1ccc(OCCN2CCCC2)cc1 (stereo in doubt; 9) [LASOFOXIFENE]"
  UNIT TEXT: "%"
  bioavailability: 60

* * *

Target or system Estrogen receptor (Rattus norvegicus, UniProt P06211+Q62986): recorded IC50 listed per item.

- MOLECULE: "Oc1ccc2c(c1)CC[C@H](c1ccccc1)[C@@H]2c1ccc(OCCN2CCCC2)cc1 (stereo in doubt; 14) [LASOFOXIFENE]"
  IC50, nM: 11.3
- MOLECULE: "COc1ccc2c(c1)CCC(c1ccccc1)=C2c1ccc(OCCN2CCCC2)cc1"
  IC50, nM: 40.9
- MOLECULE: "Oc1ccc2c(c1)OC(c1ccc(OCCN3CCCC3)cc1)C(c1ccccc1)=C2 (stereo not drawn)"
  IC50, nM: 11.1
- MOLECULE: "Oc1ccc2c(c1)CCC(c1ccccc1)=C2c1ccc(OCCN2CCCC2)cc1"
  IC50, nM: 47.1
- MOLECULE: "Oc1ccc2c(c1)CC[C@H](c1ccccc1)[C@@H]2c1ccc(OCCN2CCCC2)cc1 (stereo in doubt; 9) [LASOFOXIFENE]"
  IC50, nM: 11.1
- MOLECULE: "Oc1ccc2c(c1)CC[C@H](c1ccccc1)[C@H]2c1ccc(OCCN2CCCC2)cc1"
  IC50, nM: 9.75
- MOLECULE: "COc1ccc2c(c1)CCC(c1ccccc1)C2c1ccc(OCCN2CCCC2)cc1 (stereo not drawn)"
  IC50, nM: 132
- MOLECULE: "Oc1ccc2c(c1)CC[C@@H](c1ccccc1)[C@H]2c1ccc(OCCN2CCCC2)cc1"
  IC50, nM: 270

* * *

Assay: Oral bioavailability in cynomolgus monkey.
Format: ADME, organism-based, Macaca fascicularis
Details: in vivo

- COMPOUND: "Oc1ccc2c(c1)CC[C@H](c1ccccc1)[C@@H]2c1ccc(OCCN2CCCC2)cc1 (stereo in doubt; 14) [LASOFOXIFENE]"
  UNIT TEXT: "%"
  bioavailability: 45
